Tested on: HOP-18
Assay Procedure: NCI tumour cell line growth inhibition, 48 h
The source made the active and inactive calls. No stated cut-off is given here; in the data, active = GI50 up to about 1.1 µM and inactive = higher.
Measured Quantity: GI50

Answered cases to consult:
| Compound | GI50 |
| --- | --- |
| O=[N+]([O-])c1cccc(C2=NOC3CCCC23)c1 (stereo not given) | > 100 µM (inactive) |
| CCCNC(=O)c1cc2ccccc2cc1C(=O)OC | > 100 µM (inactive) |
| O=C(N/C(=C\c1ccc(/C=C(\NC(=O)c2ccccc2)c2nc3cc(Cl)ccc3[nH]2)cc1)c1nc2cc(Cl)ccc2[nH]1)c1ccccc1 | 8.91 µM (inactive) |
| Cc1cc(=O)oc2c(C3=NN(C=O)C(c4ccccc4)C3)c(O)ccc12 (stereo not given) | > 100 µM (inactive) |

Lookup result for CCc1cc(C)cc2[n+]1CC=C2C.[O-][Cl+3]([O-])([O-])[O-] ; measured GI50: 1.72 µM (inactive)

----------
System: HCC 2998
Assay Procedure: NCI tumour cell line growth inhibition, 48 h
Activity calls are given as the source filed them. Cut-off read from the data, not from the text of the source: active = GI50 up to about 1.1 µM and inactive = higher.
// reported GI50 for each item listed

Answered cases to consult:
| Compound | GI50 |
| --- | --- |
| O=[N+]([O-])c1cccc(C2=NOC3CCCC23)c1 (stereo not given) | > 100 µM (inactive) |
| CCN(CCCl)c1cccc(NC(=O)c2ccc(C(=O)Nc3cccc(CN(C)C)c3)cc2)c1 | 0.123 µM (active) |
| Cc1ccc(N2C(=O)C(=O)N(/N=C3\C(=O)Nc4ccccc43)C2=S)cc1 | 93.5 µM (inactive) |

Query COc1ccc2c(c1)[nH]c1c(/C=C/c3ccccc3)nccc12 on HCC 2998; GI50 returned: 13 µM (inactive)

Query O/N=C1/C(=C/c2ccc(F)cc2)CCCC1C(NO)c1ccc(F)cc1 (stereo not given) on HCC 2998; GI50 returned: 35.6 µM (inactive)

----------
Tested on: ACHN
Assay Procedure: NCI tumour cell line growth inhibition, 48 h
The source made the active and inactive calls. Rule as the data show it: active = GI50 up to about 1.1 µM and inactive = higher.
Measured Quantity: GI50

| Molecule | Measured Quantity | Test Value |
| --- | --- | --- |
| CC#CC#C/C=C1/O[C@]2(CCC(OC(=O)CC(C)C)CO2)[C@@H]2O[C@H]12 (stereo not given in full) | GI50 | 21 µM (inactive) |
| Cc1cccc2c1C(=O)OC2(c1cccc2ccccc12)c1cccc2ccccc12 | GI50 | 63.5 µM (inactive) |
| COc1ccc2c3c([nH]c2c1[N+](=O)[O-])C(C)N(C)CC3 (stereo not given) | GI50 | > 100 µM (inactive) |
| CCOC(=O)C(C)Sc1nnc(COc2ccccc2OC)n1-c1ccccc1 (stereo not given) | GI50 | > 100 µM (inactive) |

// next entry
Query COc1cc(Cn2c3c(c4cc(O)ccc42)C(=O)c2ccccc2C3=O)cc(OC)c1 on ACHN; GI50 returned: 1.61 µM (inactive)

----------
System: Hs-578T
Assay Procedure: NCI tumour cell line growth inhibition, 48 h
The source made the active and inactive calls. No stated cut-off is given here; in the data, active = GI50 up to about 1.1 µM and inactive = higher.
Hello, when you answer, please use one of the following outcomes: active, inactive

Solved entries:
| Compound | Measurement Target | Class Assignment |
| --- | --- | --- |
| CCOC(=O)Nc1cc2c(c(N)n1)N=C(c1ccc(Cl)cc1Cl)CN2 | Hs-578T | active |
| CC1(C)CCC2=C(O1)c1ccccc1/C(=N/c1ccc([N+](=O)[O-])cc1)C2=O | Hs-578T | inactive |
| COC(=O)/C=C(\C(=O)OC)C1C(=O)Oc2c(C)c(=O)c3ccccc3n21 (stereo not given) | Hs-578T | inactive |
| O=C1CSC(c2cccc(Oc3ccccc3)c2)N1c1ccc(Cl)cc1 (stereo not given) | Hs-578T | inactive |
| CCOC(=O)c1c(-c2ccc(O)c(OC)c2)c(C#N)c(=S)n(C2OC(CO)C(O)C(O)C2O)c1-c1ccccc1 (stereo not given) | Hs-578T | inactive |

Name the outcome recorded for CC(ON(C(c1ccccc1)C(C)C)C(C)(C)C)c1ccccc1 (stereo not given) in the assay.
inactive

----------
Tested on: NCI-H460
Assay Procedure: NCI tumour cell line growth inhibition, 48 h
Active and inactive are the calls of the source. No stated cut-off is given here; in the data, active = GI50 up to about 1.1 µM and inactive = higher.
// reported GI50 for each item listed

Answered cases to consult:
| Compound | Measured Quantity | Test Value |
| --- | --- | --- |
| CCOC(=O)C(C)Sc1nnc(COc2ccccc2OC)n1-c1ccccc1 (stereo not given) | GI50 | 18.3 µM (inactive) |
| CN(C)CCNC(=O)c1cc([N+](=O)[O-])cc2c1Oc1ccccc1O2 | GI50 | 4.23 µM (inactive) |
| NC(CO)c1ccccc1 (stereo not given) | GI50 | > 100 µM (inactive) |
| COc1cc(C2c3cc4c(cc3OC(NNc3ccccc3)C2C)OCO4)cc(OC)c1O (stereo not given) | GI50 | 0.337 µM (active) |

Lookup result for CC(=O)Nc1c2sscc-2n(C)c1=O [THIOLUTIN] ; measured GI50: 0.537 µM (active)

Lookup result for O=C(O)CCCc1ccc2c(c1)C(C(=O)O)CC2 (stereo not given) ; measured GI50: > 100 µM (inactive)

Lookup result for Cc1c(C(=O)/C=C/c2ccccc2O)c(=O)n(-c2ccccc2)n1C ; measured GI50: 12.9 µM (inactive)

Lookup result for COC(=O)c1n[nH]c(C)c1/N=N/N(C)CCC#N ; measured GI50: 14.2 µM (inactive)

Lookup result for NC(CCCCP(=O)(O)O)C(=O)O (stereo not given) ; measured GI50: > 100 µM (inactive)

Lookup result for CCNC(=O)Cc1nc2c(N)ncnc2n1C1OC(CO)C(O)C1O (stereo not given) ; measured GI50: > 100 µM (inactive)

Lookup result for CC1CCC2[C@@H](C)COC3O[C@]4(C)CCC1C32OO4 (stereo not given in full) ; measured GI50: > 100 µM (inactive)

Lookup result for C=CCNc1ccc(C)cc1 ; measured GI50: > 100 µM (inactive)

Lookup result for CC(C)=CCC[C@@H](C)C1=C(O)C(=O)C(C)=C(Nc2ccccc2F)C1=O ; measured GI50: 12 µM (inactive)

Lookup result for COC(=O)[C@@]12C(=O)C=CC(=O)C1C1C(=CC2C)OC2OC3(CCCCC3)OC21 (stereo not given in full) ; measured GI50: 18.8 µM (inactive)

Lookup result for O=[N+]([O-])c1ncc(N(CCO)CCO)s1 ; measured GI50: 61.2 µM (inactive)

Lookup result for Cc1ccc(S(=O)(=O)NC(=O)NS(=O)(=O)O)cc1 ; measured GI50: > 100 µM (inactive)

Lookup result for CCc1cc(CCC(=O)Nc2c(C)cccc2C)n[nH]1 ; measured GI50: > 100 µM (inactive)

Lookup result for CC(=O)OCc1ncccc1C(OC(C)=O)OC(C)=O ; measured GI50: > 100 µM (inactive)

Lookup result for O=C1c2ccccc2-c2c1c1ccccc1c(=O)n2CCO ; measured GI50: 1.82 µM (inactive)

Lookup result for CCN(CC)CCCC(C)Nc1c2cc(OC)cc(C)c2nc2c(C)c(Cl)ccc12 (stereo not given) ; measured GI50: 1.8 µM (inactive)

Lookup result for O=C1C(Cl)=C(N2CCOCC2)C(=O)c2c(O)ccc(O)c21 ; measured GI50: 0.881 µM (active)

Lookup result for CC1=CC(=O)c2c(C=O)c(O)c(O)c(C(C)C)c2C1=O ; measured GI50: 28.8 µM (inactive)

----------
Test system: HCT-116
Assay Procedure: NCI tumour cell line growth inhibition, 48 h
Activity calls are given as the source filed them. Rule as the data show it: active = GI50 up to about 1.1 µM and inactive = higher. Bridge positions count the residues as written; N and C are the ends. Peptide text beside a SMILES is read from it. * marks the point of attachment. Cbz = O=C(OCc1ccccc1)*
Hello, when you answer, please use one of the following outcomes: label 1 (active), label 0 (inactive)

Solved entries:
| Compound | Class Assignment |
| --- | --- |
| CC(NC(=O)C(C)C(=O)NCc1ccc(C(F)(F)F)cc1)C(N)=O (stereo not drawn) | label 0 |
| COc1cc(C2c3cc4c(cc3OC(NNc3ccccc3)C2C)OCO4)cc(OC)c1O (stereo not drawn) | label 0 |

Name the outcome recorded for C[N+](C)(C)CC(=O)N/N=C(/CC1OC(=O)c2ccccc21)c1ccccc1O (stereo not drawn) in the assay.
label 0

Name the outcome recorded for CNC(=O)C1CCCCNC(=O)CCC(NC(=O)OCc2ccccc2)C(=O)N1 (stereo not drawn) (Cbz-Glu-Lys-NHMe; lactam 1-2; configuration not given here) in the assay.
label 0

Name the outcome recorded for CC(=O)OC1C(C)OC(OC(=O)C2CCC3C(C2)OC2(CC(OC(=O)/C=C/c4ccccc4)C(C)CO2)C32CO2)C(OC2OC(C)C(O)C(OC(C)=O)C2O)C1O (stereo not drawn) in the assay.
label 1

Name the outcome recorded for COC(=O)CN(CC(=O)NCCCBr)C1CCCCC1N(CC(=O)OC)CC(=O)OC (stereo not drawn) in the assay.
label 0

Name the outcome recorded for NC(CCCCP(=O)(O)O)C(=O)O (stereo not drawn) in the assay.
label 0

Name the outcome recorded for Cc1c2ccc3ccccc3c2c[n+]2ccccc12 in the assay.
label 0

Name the outcome recorded for O=C1CSSCC(=O)Nc2ccccc2N1 in the assay.
label 0

Name the outcome recorded for O=c1c2ccccc2sc2nc(O)nn12 in the assay.
label 0

Name the outcome recorded for c1ccc2c3ccn4ccc5c6ccccc6[nH]c5c4c-3nc2c1 in the assay.
label 1

Name the outcome recorded for COCC1OC(S(=O)(=O)c2ccccc2)C(O)C(OC)C1OC (stereo not drawn) in the assay.
label 0

Name the outcome recorded for N#Cc1cc2c(cc1Cl)Sc1nnc(Nc3ccccc3)n1S2(=O)=O in the assay.
label 0

Name the outcome recorded for CC(C)[C@]12O[C@H]1[C@@H]1O[C@]13[C@]1(O[C@H]1C[C@H]1C4=C(CC[C@@]13C)C(=O)OC4)[C@@H]2O [TRIPTOLIDE] in the assay.
label 1

Name the outcome recorded for ClCCCCCc1c2nc(c(CCCCCCl)c3ccc([nH]3)c(CCCCCCl)c3nc(c(CCCCCCl)c4ccc1[nH]4)C=C3)C=C2 in the assay.
label 0

Name the outcome recorded for COc1ccc(C(=O)c2c(C(C(=O)c3ccc(OC)cc3)C(=O)c3ccc(OC)cc3)n(C(=O)c3ccc(OC)cc3)c3ccccc23)cc1 in the assay.
label 0

Name the outcome recorded for Cc1ccc(-c2cc(-c3c(C)nn(C)c(=O)c3N)n[nH]2)cc1 in the assay.
label 0

Name the outcome recorded for COC(=O)c1ccccc1NCc1cc(O)ccc1O in the assay.
label 0
